Assay: label from the status in PepcDB records
MEASURED_QUANTITY: protein production

| ORDERED_RESIDUES | MEASURED_QUANTITY | RESULT |
| --- | --- | --- |
| MDQLSEKQIWYYHIIPEYQTEKSFYACVRRSGMIKFDTFYFPHMLSARETQRSIKFGDGVWSGCLYDPDIYTDGKISIQGVGGVLFPREAEIGGCVCLCLIFLIKLGLSTKYMKSHVSFDVSCDL | protein production | failed |
| MFSMILSGLICGALLGFVMQRGRFCLTGGFRDMYIVKNNRMFYALLIAISVQSVGVFALIQAGLLTYEAGAFPWLGTVIGGYIFGLGIVLAGGCATGTWYRAGEGLIGSWIALFTYMVMSAVMRSPHASGLNQTLQHYSTEHNSIAETFNLSVWPLVAVLLVITLWVVMKELKKPKLKVATLPPRRTGIAHILFEKRWHPFVTAVLIGLIALLAWPLSEATGRMFGLGITSPTANILQFLVAGDMKYINWGVFLVLGIFVGSFIAAKASREFRVRAADAQTTLRSGLGGVLMGFGASIAGGCSIGNGLVMTAMMTWQGWIGLVFMILGVWTASWLVYVRPQRKARLATAAAN | protein production | failed |
| MQRVAQWAADVPEETLNLLELSQVAGVSLRQLQSAFKAFTGMAPSQWLRLRRLNSAHRELLSRGPTETTVAEVAMHWSFWHLGRFSSSYRALFKELPSQTLKRSAVARR | protein production | failed |
